- System: B. anthracis Sterne 7702 bacilli (wild-type)
- conditions: read-out: EC50 values (as stated in running text)
pEC50: −log10 of the molar value.
result_type: pEC50

Tell me the measured pEC50 of PESKAIK(S5A)LLK(S5A)VSKERSKRSP (sidechain bridge or staple) [stapled peptide P9] , please. 5.30 to 5.40

The values you see were collected from paper PMC9841529.
